src = patent US10669272B2

study system: human DGKζ (Homo sapiens, UniProt Q13574)
Construct: TVMV protease cleavage site (C); Hexa-His (C); made in house; host or cells: Sf9 insect cells (baculovirus, Bac-to-Bac)
Sequence (Q13574 with tags, fused parts or gaps isoform Q13574-4): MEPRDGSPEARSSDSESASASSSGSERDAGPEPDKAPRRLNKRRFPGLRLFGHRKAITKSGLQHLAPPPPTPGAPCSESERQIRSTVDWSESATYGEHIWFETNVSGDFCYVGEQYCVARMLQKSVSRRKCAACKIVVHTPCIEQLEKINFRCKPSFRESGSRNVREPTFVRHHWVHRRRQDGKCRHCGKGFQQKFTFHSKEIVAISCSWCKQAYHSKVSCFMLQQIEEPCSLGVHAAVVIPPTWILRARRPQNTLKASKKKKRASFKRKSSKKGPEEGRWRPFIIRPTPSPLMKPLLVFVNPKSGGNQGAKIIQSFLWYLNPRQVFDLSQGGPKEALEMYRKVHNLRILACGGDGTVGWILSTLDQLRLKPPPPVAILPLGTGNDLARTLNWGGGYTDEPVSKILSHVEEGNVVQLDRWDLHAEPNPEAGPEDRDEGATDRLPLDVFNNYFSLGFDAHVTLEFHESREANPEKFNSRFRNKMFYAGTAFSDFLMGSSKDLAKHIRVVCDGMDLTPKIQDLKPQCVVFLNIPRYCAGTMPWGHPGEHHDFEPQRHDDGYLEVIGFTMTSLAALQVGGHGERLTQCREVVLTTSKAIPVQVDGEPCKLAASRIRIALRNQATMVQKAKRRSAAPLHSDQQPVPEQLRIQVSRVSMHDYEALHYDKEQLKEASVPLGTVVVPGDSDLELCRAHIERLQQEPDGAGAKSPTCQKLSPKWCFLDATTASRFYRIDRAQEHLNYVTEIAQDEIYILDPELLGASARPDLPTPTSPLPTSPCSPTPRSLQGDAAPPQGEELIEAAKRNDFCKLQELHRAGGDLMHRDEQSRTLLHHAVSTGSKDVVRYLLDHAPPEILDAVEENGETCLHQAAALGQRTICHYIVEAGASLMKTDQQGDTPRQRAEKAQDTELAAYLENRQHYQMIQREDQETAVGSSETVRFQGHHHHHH
test: DGKζ LIPGLO assay (extruded liposome substrate), in vitro DGK inhibition
Type: biochemical
particulars: liposome (LIPGLO) assay; read-out: DGKz LIPGLO IC50
Counter-ions that a name gives are not always drawn.
API: label(entry) gives satisfied if the entry's IC50 is strictly smaller than 400 nM; on equality or larger values it gives not satisfied.

Enquiry: Given the entry `CC[C@@H]1CN(c2c(F)c(=O)n(C)c3ccc(C#N)nc23)CCN1C(c1ccc(F)cc1)c1ccc(F)cc1` , would its reported IC50 be below 400 nM?
Return: not satisfied

Enquiry: Another: CC(c1cc(F)cc(OC(F)(F)F)c1)N1C[C@H](C)N(c2cc(=O)n(C)c3ccc(C#N)nc23)C[C@H]1C (single isomer, unassigned) [Example 1211]
Return: not satisfied

Enquiry: Another: CC[C@H]1CN(C(c2ccc(F)cc2)c2csc(C(F)(F)F)n2)[C@H](CC)CN1c1cc(=O)n(C)c2ccc(C#N)nc12 (single isomer, unassigned) [Example 1361]
Return: satisfied

Enquiry: Another: CC[C@H]1CN(C(c2ccc(F)cc2)c2nc(C3CC3)cs2)[C@H](CC)CN1c1cc(=O)n(C)c2ccc(C#N)nc12 (stereo partly drawn) [Example 1067]
Return: satisfied

Enquiry: Another: C[C@@H]1CN(c2cc(=O)n(C)c3ccc(C#N)nc23)[C@@H](C)CN1C(c1ccc(F)cc1)c1c(F)cccc1F (single isomer, unassigned) [Example 275]
Return: not satisfied

Enquiry: Another: COCc1ccc(C(C)N2C[C@H](C)N(c3cc(=O)n(C)c4ccc(C#N)nc34)C[C@H]2C)cc1 (stereo partly drawn)
Return: satisfied

Enquiry: Another: CC[C@@H]1CN(c2cc(=O)n(C)c3ccc(C#N)nc23)[C@@H](C)CN1C(C)c1ccc(Cl)cc1F (single isomer, unassigned) [Example 1352]
Return: satisfied

Enquiry: Another: COCC(F)(F)C(c1ccc(F)cc1)N1C[C@H](C)N(c2cc(=O)n(C)c3ccc(C#N)nc23)C[C@H]1C (single isomer, unassigned) [Example 1312]
Return: satisfied

Enquiry: Another: Cc1ccc(C(c2cc(C)ccn2)N2C[C@H](C)N(c3cc(=O)n(C)c4ccc(C#N)nc34)C[C@H]2C)cc1 (single isomer, unassigned) [Example 460]
Return: satisfied

Enquiry: Another: C[C@@H]1CN(c2cc(=O)n(C)c3ccc(C#N)nc23)[C@@H](C)CN1C(c1ccc(F)cc1)c1cc(F)cc(F)c1 (stereo partly drawn)
Return: not satisfied

Enquiry: Another: CC(c1ccc(C(F)(F)F)cc1F)N1C[C@H](C)N(c2cc(=O)n(C)c3ccc(C#N)nc23)C[C@H]1C (stereo partly drawn) [Example 431]
Return: not satisfied

Enquiry: Another: CC[C@@H]1CN(c2cc(=O)n(C)c3ccc(C#N)nc23)[C@@H](C)CN1C(c1ccc(OC(F)(F)F)cc1)C1CC1 (stereo partly drawn)
Return: not satisfied

Enquiry: Another: Cn1c(=O)cc(N2CCN(C(c3ccc(F)cc3)c3ccc(F)cc3)C(C(=O)NC3CC3)C2)c2nc(C#N)ccc21 (racemic) [Example 46]
Return: not satisfied

Enquiry: Another: `C[C@@H]1CN(c2c(C(F)F)c(=O)n(C)c3ccc(C#N)nc23)[C@@H](C)CN1Cc1ccc(OC(F)(F)F)cc1F`
Return: not satisfied

Enquiry: Another: C[C@@H]1CN(c2cc(=O)n(C)c3ccc(C#N)nc23)[C@@H](C)CN1C(c1ccc(F)cc1)c1cocn1 (single isomer, unassigned) [Example 709]
Return: not satisfied

Enquiry: Another: `COc1cc(OC(F)(F)F)ccc1CN1C[C@H](C)N(c2cc(=O)n(C)c3ccc(C#N)nc23)C[C@H]1C`
Return: not satisfied

Enquiry: Another: CC(c1ccc(OC(F)(F)F)cc1)N1C[C@H](C)N(c2cc(=O)n(C)c3ccc(C#N)nc23)C[C@H]1CO (single isomer, unassigned) [Example 1387]
Return: not satisfied

Enquiry: Another: C[C@@H]1CN(c2cc(=O)n(C)c3ccc(C#N)nc23)[C@@H](C)CN1C(c1ccc(OC(F)(F)F)cc1)c1ccccn1 (stereo partly drawn) [Example 405]
Return: not satisfied

Enquiry: Another: CC(C)C(C)(F)C1CN(c2cc(=O)n(C)c3ccc(C#N)nc23)CCN1C(c1ccc(F)cc1)c1ccc(F)cc1 (single isomer, unassigned) [Example 91, TFA]
Return: not satisfied

Enquiry: Another: C[C@@H]1CN(c2cc(=O)n(C)c3ccc(C#N)nc23)[C@@H](C)CN1C(c1ccc(F)cc1)c1cccc(F)c1 (mixture of isomers) [Example 248]
Return: not satisfied

Enquiry: Another: CC(c1cccc(C(F)F)n1)N1C[C@H](C)N(c2cc(=O)n(C)c3ccc(C#N)nc23)C[C@H]1C (stereo partly drawn) [Example 1223]
Return: satisfied

Enquiry: Another: Cn1c(=O)cc(N2CCN(C(c3ccc(F)cc3)c3ccc(F)cc3)CC2C(N)=O)c2nc(C#N)ccc21 (single isomer, unassigned) [Example 142]
Return: not satisfied

Enquiry: Another: C[C@@H]1CN(c2cc(=O)n(C)c3ccc(C#N)nc23)[C@@H](C)CN1C(c1ccc(OC(F)(F)F)cc1)c1ccccn1 (stereo partly drawn) [Example 377]
Return: not satisfied

Enquiry: Another: Cn1c(=O)cc(N2CCN(C(c3ccc(F)cc3)c3ccc(F)cc3)C(CO)C2)c2nc(C#N)ccc21 (single isomer, unassigned) [Example 1]
Return: not satisfied
